- assayed-system: IRAK4 (Homo sapiens, UniProt Q9NWZ3)
- Construct: Degradation of IRAK4 in OCI-LY10 was quantitatively measured using Meso Scale Discovery technology; endogenous in cells; host or cells: OCI-LY10
- Sequence (Q9NWZ3 1-460): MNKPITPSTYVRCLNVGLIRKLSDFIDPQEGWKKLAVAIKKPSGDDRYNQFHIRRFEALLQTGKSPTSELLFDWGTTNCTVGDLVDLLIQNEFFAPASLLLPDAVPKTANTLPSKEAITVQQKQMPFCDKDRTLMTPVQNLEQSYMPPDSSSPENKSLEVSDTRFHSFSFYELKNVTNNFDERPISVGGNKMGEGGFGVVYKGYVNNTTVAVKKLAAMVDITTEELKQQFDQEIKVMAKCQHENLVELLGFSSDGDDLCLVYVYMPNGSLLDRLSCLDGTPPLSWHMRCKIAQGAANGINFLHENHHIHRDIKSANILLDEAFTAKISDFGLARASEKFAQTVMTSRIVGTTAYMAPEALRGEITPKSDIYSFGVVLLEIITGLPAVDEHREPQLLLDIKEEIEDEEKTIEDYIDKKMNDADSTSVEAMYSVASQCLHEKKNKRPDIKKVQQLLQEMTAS
- test-summary: IRAK4 MSD Degradation in OCI-LY10
- Type: cell-based
- experimental-conditions: OCI-LY10 cells, 24 hrs incubation, MSD; read-out: IRAK4 degradation in OCI-LY10 at 24 hrs: DC50
readout-label: DC50

Some entries whose results are on file:
Cc1nn([C@H]2CC[C@H](CN3CCC(OCC#Cc4cccc5c4n(C)c(=O)n5C4CCC(=O)NC4=O)CC3)CC2)cc1NC(=O)c1cnn2ccc(N3C[C@H]4C[C@@H]3CO4)nc12 (some centres unmarked) ... > 0.2 µM
Cn1c(=O)n(C2CCC(=O)NC2=O)c2cccc(C#CCN3CC4(C3)N(C[C@H]3CC[C@H](n5cc(NC(=O)c6cnn7ccc(N8CCCC8)nc67)c(C(F)F)n5)CC3)CC4(F)F)c21 (some centres unmarked) ... > 0.2 µM

# query: DC50 of entry Cn1c(=O)n(C2CCC(=O)NC2=O)c2cccc(C#CCN3CCN(C[C@H]4CC[C@H](n5cc(NC(=O)c6cnn7ccc(N8CCC9(CC8)COC9)nc67)c(C(F)F)n5)CC4)CC3)c21 (some centres unmarked) > 0.2 µM

And Cc1ccc(-c2nn([C@H]3CC[C@H](CN4CCC(OCC#Cc5cccc6c5n(C)c(=O)n6C5CCC(=O)NC5=O)CC4)CC3)cc2NC(=O)c2cnn3cccnc23)cc1 (some centres unmarked) ? 0.01 to 0.1 µM

====

Reported DC50 values follow for various compounds
- assayed-system: IRAK4 (Homo sapiens, UniProt Q9NWZ3)
- Construct: Degradation of IRAK4 in OCI-LY10 was quantitatively measured using Meso Scale Discovery technology; endogenous in cells; host or cells: OCI-LY10
- test-summary: IRAK4 MSD Degradation in OCI-LY10
- Assay type: cell-based
- experimental-conditions: OCI-LY10 cells, 4 hrs incubation, MSD; read-out: IRAK4 degradation in OCI-LY10 at 4 hrs: DC50

Here is how some compounds turned out for DC50.
Cn1c(=O)n(C2CCC(=O)NC2=O)c2cccc(C3CCN(CC4COC5(C4)CN(C[C@H]4CC[C@H](n6cc7cc(NC(=O)c8cccc(C(F)(F)F)n8)c(C(C)(C)O)cc7n6)CC4)C5)CC3)c21 (stereo partly drawn) ... > 200 nM
Cn1c(=O)n(C2CCC(=O)NC2=O)c2cccc(N3CCN(CC4COC5(C4)CN(C[C@H]4CC[C@H](n6cc7cc(NC(=O)c8cccc(C(F)(F)F)n8)ccc7n6)CC4)C5)CC3)c21 (stereo partly drawn) [I-665] ... > 200 nM

Would you kindly look at the next entry?
// returns reported DC50 for input Cn1c(=O)n(C2CCC(=O)NC2=O)c2cccc(C#CCN3CCN(C[C@H]4CC[C@H](n5cc(NC(=O)c6cnn7ccc(N8CC9(COC9)C8)nc67)c(C(F)F)n5)CC4)CC3)c21 (stereo partly drawn) > 200 nM

The reported numbers originate from patent US12091411B2.
